# system: SHIP1 (Mus musculus, UniProt Q9ES52)
# Construct: The asterisk in lanes 1 and 3 indicates the ˜145 kD full-length SHIP protein; His tag (C); made in house; host or cells: E. coli Rosetta-Gami 2 (DE3) pLys
# Sequence (Q9ES52 whole entry): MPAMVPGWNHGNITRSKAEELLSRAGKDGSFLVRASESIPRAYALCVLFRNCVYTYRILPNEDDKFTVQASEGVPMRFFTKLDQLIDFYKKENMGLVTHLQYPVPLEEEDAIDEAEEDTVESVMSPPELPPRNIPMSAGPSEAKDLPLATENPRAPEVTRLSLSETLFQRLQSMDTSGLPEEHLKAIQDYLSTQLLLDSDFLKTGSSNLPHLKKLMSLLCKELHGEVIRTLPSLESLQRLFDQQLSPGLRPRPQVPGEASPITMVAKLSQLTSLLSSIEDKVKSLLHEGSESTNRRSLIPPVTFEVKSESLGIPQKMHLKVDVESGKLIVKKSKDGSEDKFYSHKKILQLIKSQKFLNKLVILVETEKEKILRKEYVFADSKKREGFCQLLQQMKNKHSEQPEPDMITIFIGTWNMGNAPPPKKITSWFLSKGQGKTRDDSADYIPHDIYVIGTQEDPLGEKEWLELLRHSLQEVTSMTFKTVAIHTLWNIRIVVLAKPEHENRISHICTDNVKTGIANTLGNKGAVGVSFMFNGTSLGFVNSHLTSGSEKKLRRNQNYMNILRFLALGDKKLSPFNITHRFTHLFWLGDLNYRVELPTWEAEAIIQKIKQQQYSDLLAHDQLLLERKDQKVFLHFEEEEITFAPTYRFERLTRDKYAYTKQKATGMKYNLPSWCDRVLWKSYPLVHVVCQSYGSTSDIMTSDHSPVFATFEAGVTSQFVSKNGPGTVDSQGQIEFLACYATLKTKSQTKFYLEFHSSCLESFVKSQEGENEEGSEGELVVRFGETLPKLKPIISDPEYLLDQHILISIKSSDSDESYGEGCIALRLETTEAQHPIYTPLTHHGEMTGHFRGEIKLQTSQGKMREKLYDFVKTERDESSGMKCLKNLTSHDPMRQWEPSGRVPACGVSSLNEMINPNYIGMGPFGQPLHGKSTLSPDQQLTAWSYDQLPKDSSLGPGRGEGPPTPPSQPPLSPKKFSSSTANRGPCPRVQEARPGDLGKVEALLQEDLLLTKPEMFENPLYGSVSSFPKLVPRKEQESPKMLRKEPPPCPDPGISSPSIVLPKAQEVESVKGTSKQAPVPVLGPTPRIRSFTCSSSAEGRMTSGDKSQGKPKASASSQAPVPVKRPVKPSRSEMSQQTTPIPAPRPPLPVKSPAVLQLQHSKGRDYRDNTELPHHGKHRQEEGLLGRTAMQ
# assay_details: Fluorescence polarization (FP) assay of SHIP1 enzymatic activity
# Type: biochemical
# run_parameters: confirmatory FP assay of screening hits
# From the text: SHIP is detectable in this expression system as a ˜145 kD protein (FIG. 1a, lane 1). Because of an in-frame Histidine (His) tag on the COOH terminus of SHIP, it can then be purified from E. coli lysates by FPLC over a Ni-containing resin. (FIG. 1a, lane 3). Purified SHIP was routinely obtained in sufficient quantities, using this E. coli expression system and FPLC purification, to conduct high-throughput screening (HTS) of chemical libraries for compounds that inhibit SHIP activity. […]
quantity_name: SHIP inhibitory activity in FP assay

O=C1CN2CCN(CC2)CC(=O)Nc2ccc(cc2)S(=O)(=O)c2ccc(cc2)NC(=O)CN2CCN(CC2)CC(=O)Nc2ccc(cc2)S(=O)(=O)c2ccc(cc2)N1
SHIP inhibitory activity
CCOC(=O)c1c(C)c(C)n2c1NC(=O)C2
SHIP inhibitory activity
O=C1OC2(c3ccc(O)cc3Oc3cc(O)ccc32)c2c1c(-c1ccccc1)c(-c1ccccc1)c(-c1ccccc1)c2-c1ccccc1
SHIP inhibitory activity
